What pIC50 was measured for each of the following?
# MEASUREMENT TARGET: DRB4*0101 (Homo sapiens, UniProt P01903+P13762, G164S)
# EXPERIMENTAL DETAILS: biochemical
# Assay type: binding
No end group written: not given here.
Interpret pIC50 as the negative base-10 log of the concentration measured in mol/L.

Given PCHTTKLLHRDSVDS [Peptide 1601.07] , report its pIC50 on DRB4*0101 (Homo sapiens, UniProt P01903+P13762, G164S).
6.17

Given DICNTMHYTNWTHIY [Peptide 1601.04] , report its pIC50 on DRB4*0101 (Homo sapiens, UniProt P01903+P13762, G164S).
5.22

Given AFQVIELQMALETLS [Peptide 89.0181] , report its pIC50 on DRB4*0101 (Homo sapiens, UniProt P01903+P13762, G164S).
6.46

Given YRHYQYSLYGKTLEE [Peptide 1543.58] , report its pIC50 on DRB4*0101 (Homo sapiens, UniProt P01903+P13762, G164S).
5.59

Given NKALQAIELQLTLET [Peptide 89.0151] , report its pIC50 on DRB4*0101 (Homo sapiens, UniProt P01903+P13762, G164S).
7.49

Given SQLLNIPETHMVIEP [Peptide 89.0102] , report its pIC50 on DRB4*0101 (Homo sapiens, UniProt P01903+P13762, G164S).
6.09

Given ESDMAFEYALLADSN [Peptide 90.0055] , report its pIC50 on DRB4*0101 (Homo sapiens, UniProt P01903+P13762, G164S).
6.78

Given QERPRKLPQLCTELQ [Peptide 1543.22] , report its pIC50 on DRB4*0101 (Homo sapiens, UniProt P01903+P13762, G164S).
7.09

Given TYGVSFMELVRPFKS [Peptide 89.0095] , report its pIC50 on DRB4*0101 (Homo sapiens, UniProt P01903+P13762, G164S).
6.41

Given KTLIKPATLYAHIQC [Peptide 89.0083] , report its pIC50 on DRB4*0101 (Homo sapiens, UniProt P01903+P13762, G164S).
7.29

Given ACSWGMVMLMLVRFK [Peptide 89.0043] , report its pIC50 on DRB4*0101 (Homo sapiens, UniProt P01903+P13762, G164S).
6.33

Given IAYYYAQLADSNSNA [Peptide 89.0072] , report its pIC50 on DRB4*0101 (Homo sapiens, UniProt P01903+P13762, G164S).
5.62

Given DWCIIGMGVTPSVAE [Peptide 89.0096] , report its pIC50 on DRB4*0101 (Homo sapiens, UniProt P01903+P13762, G164S).
6.72

###

# MEASUREMENT TARGET: DRB1*0802 (Homo sapiens, UniProt P01903+P01911, A100R/A103L/A169T/F76Y/H45Y/I96F/K41T/L162R/M171V/P40S/Q125H/Q178H/Q39Y/Q99D/R218S/R42G/S66Y/V115G/W38E)
# EXPERIMENTAL DETAILS: biochemical
# Type: binding
No end group written: not given here.
MEASURE: pIC50
Interpret pIC50 as the negative base-10 log of the concentration measured in mol/L.

Annotate the sequence PEWIQRLTIIQHGID [Peptide 89.0031] with its measured pIC50.
6.73

Annotate the sequence CWTYFDNYMRNALDG [Peptide 89.0090] with its measured pIC50.
5.43

Annotate the sequence VEFMSFLTALKRFLQ [Peptide 89.0015] with its measured pIC50.
6.99

Annotate the sequence GKSYFGMSLISFLQG [Peptide 89.0056] with its measured pIC50.
5.22

Annotate the sequence EDLRTLQQLFLSTLS [Peptide 1543.21] with its measured pIC50.
4.89

Annotate the sequence MAIFGVNPTVAEGFK [Peptide 89.0081] with its measured pIC50.
5.96

Annotate the sequence NCILLYGPANTGKSY [Peptide 89.0087] with its measured pIC50.
4.87
